biological target: Tyrosine-protein phosphatase non-receptor type 1 (Homo sapiens)
Sequence (P18031 whole entry): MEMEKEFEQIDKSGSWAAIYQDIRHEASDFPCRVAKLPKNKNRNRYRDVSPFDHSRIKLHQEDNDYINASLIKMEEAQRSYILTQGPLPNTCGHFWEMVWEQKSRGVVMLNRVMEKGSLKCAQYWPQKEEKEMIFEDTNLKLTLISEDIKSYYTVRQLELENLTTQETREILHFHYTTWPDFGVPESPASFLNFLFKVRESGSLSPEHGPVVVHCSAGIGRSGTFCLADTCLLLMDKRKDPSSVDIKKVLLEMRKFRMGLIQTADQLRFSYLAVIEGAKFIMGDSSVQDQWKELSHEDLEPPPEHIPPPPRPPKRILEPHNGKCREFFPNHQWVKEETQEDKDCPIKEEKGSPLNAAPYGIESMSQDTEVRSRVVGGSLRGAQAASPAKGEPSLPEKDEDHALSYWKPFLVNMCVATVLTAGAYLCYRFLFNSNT
pIC50: −log10 of the molar value.
Cut-off 7 on pIC50, inclusive. At or above means true; below means false.

- compound: "CCCCc1oc2ccccc2c1C(O)c1ccc2ccc(OCn3cnnn3)c(Br)c2c1 (stereo not given)"
  classification: "false"
- compound: "Oc1c(Br)cc(-c2ccc(-c3c(Cc4ccccc4)oc4ccccc34)cc2)cc1Br"
  classification: "false"
- compound: "CCCCc1oc2ccccc2c1C(=O)c1ccc2cc(O)ccc2c1"
  classification: "true"
- compound: "CCCCc1oc2ccccc2c1C(=O)c1ccc(-c2ccc(O)cc2)cc1"
  classification: "true"
- compound: "CCCC[C@@H](Oc1c(Br)cc(-c2ccc(-c3c(Cc4ccccc4)oc4ccccc34)cc2)cc1Br)C(=O)O"
  classification: "true"

Record O=C(O)C(Cc1ccccc1)Oc1ccc(-c2ccc(-c3c(Br)oc4ccccc34)cc2)cc1 (stereo not given) ; criterion: pIC50 no lower than 7. Met?
false

Record "O=C(O)[C@@H](Cc1ccccc1)Oc1ccc(-c2ccc(-c3nc4cccnc4n3Cc3ccccc3)cc2)cc1" ; criterion: pIC50 no lower than 7. Met?
false

Record CCCCc1oc2ccccc2c1C(O)c1ccc2cc(O)ccc2c1 (stereo not given) ; criterion: pIC50 no lower than 7. Met?
false

Record "CCCCc1oc2ccccc2c1Cc1ccc2ccc(O)cc2c1" ; criterion: pIC50 no lower than 7. Met?
false

###

Form: system (Tyrosine-protein phosphatase non-receptor type 1 (Homo sapiens, UniProt P18031)), quantity (IC50), values below.
Use nM as the unit, but write only the number.

Solved cases (2 shown):
- compound: "O=C(O)c1ccc(S(=O)(=O)Oc2ccc(-c3ccc(-c4c(Cc5ccccc5)oc5ccccc45)cc3)cc2[N+](=O)[O-])cc1O"
  unit symbol: "nM"
  IC50: 39.8
- compound: "O=C(O)C(Cc1ccccc1)Oc1ccc(-c2ccc(-c3coc4ccccc34)cc2)cc1 (stereo not drawn)"
  unit symbol: "nM"
  IC50: 288

Query compound follows.
For "O=C(O)[C@@H](Cc1ccccc1)Oc1c(Br)cc(-c2ccc(-c3c(Cc4ccccc4)oc4ccccc34)cc2)cc1Br" , what is its reported IC50?
38
